Data origin: patent US20240368163A1

Tested on: MYB
Assay: Splicing RT-qPCR assay, MYB mRNA canonical junction (CJ) and alternative junction (AJ)
Type: cell-based, human
Conditions: Homo sapiens, 24 h, decrease in CJ mRNA; A673 or K562 cells, 24 hours treatment, RT-qPCR; read-out: MYB CJ IC50
pIC50: −log10 of the molar value.
READOUT LABEL: pIC50

For orientation, consider the following solved cases.
1. c1n[nH]cc1-c1ccc(-c2ccc(N3CCC4(CCNC4)CC3)nn2)c2[nH]ncc12	< 5.00
2. CC1(C)CC(N(c2ccc(-c3ccc(-c4cn[nH]c4)c4ncsc34)nn2)C2CC2)CC(C)(C)N1	6.00 to 7.00
3. CCN(c1ccc(-c2ccc(-c3cn[nH]c3)c3cn[nH]c23)nn1)[C@@H]1C[C@H]2CC[C@@H](C1)N2	5.00 to 6.00

Look at each compound and report its pIC50.
1. c1nc2c(-c3cn[nH]c3)ccc(-c3ccc(N4CC5(CCNCC5)C4)nn3)c2s1
2. c1nc2c(-c3cn[nH]c3)ccc(-c3ccc(N4CCC45CCCNC5)nn3)c2s1 (stereo not shown)
3. c1nc2c(-c3cn[nH]c3)ccc(-c3ccc(N[C@@H]4C[C@H]5CC[C@@H](C4)N5)nn3)c2s1
4. CN(c1ccc(-c2cc(F)c(-c3cn[nH]c3)c3cn[nH]c23)nn1)[C@@H]1C[C@H]2CC(F)(F)[C@@H](C1)N2 (stereo in doubt)

Reply:
1. < 5.00
2. 5.00 to 6.00
3. 6.00 to 7.00
4. 6.00 to 7.00

###

Tested on: SMN2
Experiment: Splicing RT-qPCR panel, SMN2 canonical junction (CJ) mRNA
Type: cell-based, human
Conditions: Homo sapiens, gene panel, CJ qPCR, protocol of Example 142; read-out: SMN2 IC50 (decrease in CJ mRNA levels)
For each record, write down the corresponding IC50.

For orientation, consider the following solved cases.
1) CN(c1ccc(-c2ccc(-c3cn[nH]c3)c(F)n2)nn1)[C@@H]1C[C@H]2CC[C@@H](C1)N2	< 100 nM
2) COc1nc(-c2ccc(NC3CCNCC3)nn2)ccc1-n1cccn1	1000 to 10000 nM
3) COc1nc(-c2ccc(OC3CC(C)(C)NC(C)(C)C3)nc2)ccc1-c1cn[nH]c1	100 to 1000 nM

Look at each molecule and report its IC50.
1. CC(C)Oc1nc(-c2ccc(N(C)[C@@H]3C[C@H]4CC[C@@H](C3)N4)nn2)ccc1-c1cn[nH]c1
2. COc1nc(-c2ccc(NC3CCNCC3)nc2)ccc1-c1cnn(C)c1
3. COc1nc(-c2ccc(N(C)C3CC(C)(C)NC(C)(C)C3)nn2)ccc1-c1cnn(C)c1
4. CN(c1ccc(-c2ccc(-c3cn[nH]c3)c(C#N)n2)nn1)[C@@H]1C[C@H]2CC[C@@H](C1)N2
5. COc1nc(-c2ccc(N3CCC(NC4CC4)C3)nn2)ccc1-c1cn[nH]c1 (stereo not drawn)

Reply:
["< 100 nM", "100 to 1000 nM", "< 100 nM", "< 100 nM", "100 to 1000 nM"]

// IC50 value for `COc1nc(-c2ccc(OC3CC(C)(C)NC(C)(C)C3)nn2)ccc1-c1cnn(C)n1` : 100 to 1000 nM

###

Tested on: Target C
Assay: Splicing RT-qPCR panel, Target C canonical junction (CJ) mRNA
Assay type: cell-based, human
Conditions: Homo sapiens, RT-qPCR panel, canonical junction mRNA; compound concentration having 50% response in CJ decrease; read-out: Target C IC50 (decrease in CJ mRNA levels)
For each record, write down the corresponding IC50.

For orientation, consider the following solved cases.
1) COc1cc(-c2ccc(-c3ccc(N(C)[C@@H]4C[C@H]5CC[C@@H](C4)N5)nn3)c3[nH]ncc23)ccn1 [Compound 364]	100 to 1000 nM
2) c1cnn(-c2ccc(-c3cnc(N4CCNC(C5CC5)C4)nn3)c3cn[nH]c23)c1 (stereo not shown) [Compound 511]	100 to 1000 nM
3) CN(c1ccc(-c2cc(F)c(-c3cnn(C)c3)c3cn[nH]c23)nn1)[C@@H]1C[C@H]2CC[C@@H](C1)N2 [Compound 291]	< 100 nM
4) c1nc2c(-c3cn[nH]c3)ccc(-c3ccc(N4CCCC5(CCNC5)C4)nn3)c2s1 (stereo not shown) [Compound 193]	> 10000 nM
5) c1n[nH]cc1-c1ccc(-c2ccc(N3CC4(CCNCC4)C3)nn2)c2[nH]ncc12 [Compound 229]	1000 to 10000 nM

Look at each compound and report its IC50.
1. CN(c1ccc(-c2ccc(-n3cccn3)c3ncsc23)nn1)[C@@H]1C[C@H]2CC[C@@H](C1)N2 [Compound 344]
2. [2H]C([2H])([2H])N(c1ccc(-c2ccc(-c3cn[nH]c3)c3cn[nH]c23)nn1)C1CC(C)(C)NC(C)(C)C1 [Compound 292]

Reply:
1: 100 to 1000 nM; 2: 1000 to 10000 nM

###

For each record, write down the corresponding pIC50.
Test system: MYB
Assay: HiBiT protein abundance assay, MYB
Assay type: cell-based, human
Details: Homo sapiens, K562, 24 h, Table 13B, modified K562 cells
pIC50: −log10 of the molar value.

For orientation, consider the following solved cases.
1) CN(C)c1nc(-c2ccc(N(C)[C@@H]3C[C@H]4CC[C@@H](C3)N4)nn2)ccc1-c1cn[nH]c1	5.00 to 6.00
2) COc1nc(-c2ccc(N3CCC(NC4CC4)C3)nn2)ccc1-c1cn[nH]c1 (stereo not shown)	< 5.00
3) COc1nc(-c2ccc(OC3CC4CC(F)(F)C(C3)N4)nn2)ccc1-c1ccnc(C)c1 (stereo not shown)	< 5.00
4) CC(C)Oc1nc(-c2ccc(N(C)[C@@H]3C[C@H]4CC[C@@H](C3)N4)nn2)ccc1-c1cn[nH]c1	6.00 to 7.00
5) COc1nc(-c2ccc(OC3CC(C)(C)NC(C)(C)C3)nn2)ccc1-c1cn[nH]c1	6.00 to 7.00
6) COc1nc(-c2ccc(N(C)C3CC(C)(C)NC(C)(C)C3)nc2)ccc1-c1cnn(C)n1	5.00 to 6.00
7) COc1nc(-c2ccc(N(C)C3C[C@H]4CC[C@@H](C3)N4)nn2)ccc1-c1cnn(C)n1 (stereo partly shown)	6.00 to 7.00
8) COc1nc(-c2ccc(OC3CC(C)(C)NC(C)(C)C3)nn2)ccc1-n1cccn1	5.00 to 6.00

Look at each compound and report its pIC50.
1. COc1nc(-c2ccc(O[C@@H]3C[C@H]4CC[C@@H](C3)N4)nn2)ccc1-c1cn(C)nn1
2. COc1nc(-c2ccc(NC3CCNCC3)nn2)ccc1-n1cccn1
3. COc1nc(-c2ccc(OC3CC4CC(F)(F)C(C3)N4)nn2)ccc1C1C=CC(F)=C1 (stereo not shown)
4. COc1nc(-c2ccc(OC3CC(C)(C)NC(C)(C)C3)nc2)ccc1-c1cn[nH]c1
5. COc1nc(-c2ccc(N(C)C3CC(C)(C)NC(C)(C)C3)nn2)ccc1-c1cnn(C)c1
6. COc1cnc(-c2ccc(-c3ccc(N(C)[C@@H]4C[C@H]5CC[C@@H](C4)N5)nn3)nc2OC)cn1
7. COc1nc(-c2ccc(NC3CCNCC3)nc2)ccc1-c1cnn(C)n1

Reply:
1. 5.00 to 6.00
2. < 5.00
3. 5.00 to 6.00
4. 5.00 to 6.00
5. 6.00 to 7.00
6. 6.00 to 7.00
7. 5.00 to 6.00

// pIC50 value for COc1nc(-c2ccc(N3CCC(NC(C)(C)C)C3)nn2)ccc1-c1cn[nH]c1 (stereo not shown) : 6.00 to 7.00

###

System: Target C
Assay: Splicing RT-qPCR panel, Target C canonical junction (CJ) mRNA
Assay type: cell-based, human
Conditions: Homo sapiens, RT-qPCR panel, canonical junction mRNA; compound concentration having 50% response in CJ decrease; read-out: Target C IC50 (decrease in CJ mRNA levels)
For each record, write down the corresponding IC50.

For orientation, consider the following solved cases.
1. CC1(C)CC(Oc2ccc(-c3cc(F)c(-c4cn[nH]c4)c4cn[nH]c34)nn2)CC(C)(C)N1 [Compound 307]	0.1 to 1 µM
2. CN(c1ccc(-c2ccc(-n3cccn3)c3[nH]ncc23)nn1)C1CC(C)(C)NC(C)(C)C1 [Compound 559]	1 to 10 µM
3. CC1(C)CC(Oc2ccc(-c3ccc(-n4cccn4)c4ncsc34)nn2)CC(C)(C)N1 [Compound 335]	1 to 10 µM
4. CN(C)[C@H]1[C@@H]2CN(c3ccc(-c4ccc(-c5cn[nH]c5)c5ncsc45)nn3)C[C@@H]21 [Compound 285]	> 10 µM
5. c1n[nH]cc1-c1ccc(-c2ccc(OC3CCNCC3)nn2)c2[nH]ncc12 [Compound 230]	> 10 µM

Look at each molecule and report its IC50.
1. c1nc2c(-c3cn[nH]c3)ccc(-c3ccc(N[C@@H]4C[C@H]5CCC[C@@H](C4)N5)nn3)c2s1 [Compound 215]
2. c1nc2c(-c3cn[nH]c3)ccc(-c3ccc(C4CCNCC4)nn3)c2s1 [Compound 206]
3. CN(c1ccc(-c2ccc(-c3cnnc(O)c3)c3scnc23)nn1)C1CC(C)(C)NC(C)(C)C1 [Compound 234]

Reply:
< 0.1 µM
> 10 µM
> 10 µM
